# assayMethodText: Metabolic stability in hepatocytes, human
# Format: in vitro ADME
# experimentalParameters: pooled cryopreserved hepatocytes, read-out: Human Clint (μL/min/10^6 cells)
valueKind: hepatocyte CLint at 1 µM (µL/min/1e6 cells)
Only the number, expressed in µL/min/1e6 cells, is required.

# hepatocyte CLint at 1 µM (molecule: CC(C)Cc1cc(F)c(-c2nn[nH]n2)c(N2CCN(Cc3ccccn3)[C@@H](C)C2)c1 ) is 5.8

###

# assayMethodText: Plasma protein binding (equilibrium dialysis), mouse
# Type: in vitro ADME
# experimentalParameters: plasma (undiluted, freshly thawed), PPB assay recovery
Collected recovery values appear next to each entry.
Only the number, expressed in %, is required.

Sample records with recovery:
compound: CC(C)Cc1cc(F)c(-c2nn[nH]n2)c(N2CC(C)N(Cc3cccnn3)CC2C)c1 (stereo not drawn) [Compound A-183]
recovery / %: 90
//
compound: CC(C)Cc1ccc(-c2nn[nH]n2)c(N2CCN(Cc3nc4ccccc4c(=O)[nH]3)CC2)c1 [Compound A-31]
recovery / %: 88

# ---- query compound ----
# recovery (compound: CC(C)Cc1cc(F)c(-c2nn[nH]n2)c(N2CCN(Cc3cccnn3)[C@@H](C)C2)c1 [Compound A-174] ) is 95

###

# system: human AT1R (Homo sapiens (Human))
# Sequence (P30556 whole entry): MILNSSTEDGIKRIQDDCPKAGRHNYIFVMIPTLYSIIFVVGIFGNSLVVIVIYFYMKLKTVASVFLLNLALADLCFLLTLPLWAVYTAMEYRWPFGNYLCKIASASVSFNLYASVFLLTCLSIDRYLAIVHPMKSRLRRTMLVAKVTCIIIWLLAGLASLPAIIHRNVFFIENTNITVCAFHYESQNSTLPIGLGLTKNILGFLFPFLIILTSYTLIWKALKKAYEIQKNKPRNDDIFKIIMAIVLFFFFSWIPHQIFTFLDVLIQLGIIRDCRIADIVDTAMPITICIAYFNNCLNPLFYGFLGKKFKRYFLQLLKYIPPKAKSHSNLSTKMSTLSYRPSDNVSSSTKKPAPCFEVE
# assayMethodText: Counterscreen radioligand binding assay, displacement of 125I-[Sar1, Ile8]-Angiotensin II, hAT1R WT
# experimentalParameters: 125I-[Sar1, Ile8]-Ang II, compound at 1 μM, semi-quantitative score, read-out: % Displaced radioligand at 1 μM
valueKind: inhibition at 1 µM

molecule: c1ccc2sc(CN3CCN(c4cc(N5CCOCC5)ccc4-c4nn[nH]n4)CC3)nc2c1
system: human AT1R (Homo sapiens (Human))
inhibition at 1 µM: < 30%

molecule: CCS(=O)(=O)NC(=O)c1ccc(C2CC2)cc1N1CCN(Cc2nc3ccccc3s2)CC1
system: human AT1R (Homo sapiens (Human))
inhibition at 1 µM: < 30%

molecule: CC(C)Cc1cc(N2CCN(Cc3nc4ccccc4c(=O)[nH]3)CC2)c(-c2nn[nH]n2)cc1F
system: human AT1R (Homo sapiens (Human))
inhibition at 1 µM: < 30%

molecule: CC(C)Cc1ccc(-c2nn[nH]n2)c(N2CCN(Cc3cnccn3)CC2)c1
system: human AT1R (Homo sapiens (Human))
inhibition at 1 µM: < 30%

molecule: CC(C)Cc1cc(N2CCN(Cc3nc4ccccc4s3)CC2)c(-c2nn[nH]n2)cc1F
system: human AT1R (Homo sapiens (Human))
inhibition at 1 µM: < 30%

# ---- query molecule ----
# inhibition at 1 µM (molecule: Cc1cc(-c2nn[nH]n2)c(N2CCN(Cc3nc4ccccc4s3)CC2)cc1CC(C)C ) is < 30%

###

# assayMethodText: PAMPA (Parallel Artificial Membrane Permeability Assay), GIT model
# Format: in vitro ADME
valueKind: Permeability Papp, Log10 (10^−6 cm/s)

Sample records with Permeability Papp, Log10 (10^−6 cm/s):
compound: CC(C)Oc1ccc(-c2nn[nH]n2)c(N2CCN(Cc3nc4ccccc4s3)CC2)c1 [Compound A-51]
testResult: −4.2 Log10 (10^−6 cm/s)
//
compound: CC(C)Oc1ccc(-c2nn[nH]n2)c(N2CCN(Cc3nc4ccccc4c(=O)[nH]3)CC2)c1 [Compound A-32]
testResult: −4.6 Log10 (10^−6 cm/s)
//
compound: CCCCOC(=O)NS(=O)(=O)c1ccc(C(F)(F)F)cc1N1CCN(Cc2nc3ccccc3n2C)CC1 [Compound A-09]
testResult: <−7 Log10 (10^−6 cm/s)
//
compound: CCCCNC(=O)NS(=O)(=O)c1ccc(C)cc1N1CCN(Cc2nc3ccccc3n2C)CC1 [Compound A-12]
testResult: <−7 Log10 (10^−6 cm/s)
//
compound: CC(C)Cc1cc(F)c(-c2nn[nH]n2)c(N2CCN(Cc3cccnn3)[C@@H](C)C2)c1 [Compound A-174]
testResult: −5.5 Log10 (10^−6 cm/s)

# Permeability Papp, Log10 (10^−6 cm/s) (compound: CCCCNC(=O)NS(=O)(=O)c1ccc(C(F)(F)F)cc1N1CCN(Cc2nc3ccccc3n2C)CC1 [Compound A-10] ) is <−7 Log10 (10^−6 cm/s)

# Permeability Papp, Log10 (10^−6 cm/s) (compound: CC(C)Oc1ccc(-c2nn[nH]n2)c(N2CCN(Cc3nc4ccccc4n3C)CC2)c1 [Compound A-24] ) is <−7 Log10 (10^−6 cm/s)

# Permeability Papp, Log10 (10^−6 cm/s) (compound: CC(C)Cc1ccc(-c2nn[nH]n2)c(N2CCN(Cc3nc4ccccc4n3C)CC2)c1 [Compound A-20] ) is <−7 Log10 (10^−6 cm/s)
